biological target: Histone-lysine N-methyltransferase EHMT2 (Homo sapiens) (UniProt Q96KQ7); experiment: qHTS Assay for Inhibitors of Histone Lysine Methyltransferase G9a; conditions: G9a H3K9 monomethylation, AlphaScreen, 2 h; series mostly up to 59 µM; note: % is set by controls: 0 for no effect and ±100 for the full control effect; nearly all actives have a fitted effect of over 75% in size
Sequence (Q96KQ7 913-1193 limits assumed): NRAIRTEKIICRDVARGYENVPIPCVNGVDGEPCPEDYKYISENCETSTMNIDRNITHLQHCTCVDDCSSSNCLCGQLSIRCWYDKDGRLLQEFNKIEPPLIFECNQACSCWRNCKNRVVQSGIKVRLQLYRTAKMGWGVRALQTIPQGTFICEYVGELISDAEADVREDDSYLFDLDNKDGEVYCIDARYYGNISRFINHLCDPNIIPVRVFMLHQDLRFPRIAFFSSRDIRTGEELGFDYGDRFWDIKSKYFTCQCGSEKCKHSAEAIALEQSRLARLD
Hit rate of the full screen: of about 350,000 compounds, about 31,000 (8.9%) were called active. Inconclusive results (about 15%) are left out. Calls come from the whole dose curve; as a rule, active = well fitted inhibition curve with a large enough effect; inconclusive = small, poorly fitted or top-dose-only effect; inactive = no such curve, though single readings can be large or run the other way. The list comes from a sample in which actives are over-represented; it also holds close analogues and randomly drawn compounds.
Respond only with the outcome that fits, drawn from true (1) = active, false (0) = inactive

CCOc1ccccc1OCC(=O)Nc1ccccc1C(=O)NC1CC1 = false (0)

Call for entry CC(C)(C)c1cc(=O)n2c(nc3ccccc32)[nH]1 :
false (0)

Call for entry COC(=O)C1(C)NC(c2ccc(C)cc2)C2C(=O)N(c3ccc(F)cc3)C(=O)C21 (configuration not stated) :
false (0)

Call for entry CC(=O)N1CCOc2ccc(S(=O)(=O)N3CCN(c4cccc(C(F)(F)F)c4)CC3)cc21 :
false (0)

Call for entry CC(NS(=O)(=O)c1ccc(Cl)cc1)C(=O)Nc1ccc2c(c1)OCCO2 (configuration not stated) :
false (0)

Source: PubChem BioAssay AID504332
